Measured values drawn from patent US7078428B2 for this set.

# measured_target: NHE1 (Homo sapiens, UniProt P19634)
# Sequence (P19634 whole entry, species assumed): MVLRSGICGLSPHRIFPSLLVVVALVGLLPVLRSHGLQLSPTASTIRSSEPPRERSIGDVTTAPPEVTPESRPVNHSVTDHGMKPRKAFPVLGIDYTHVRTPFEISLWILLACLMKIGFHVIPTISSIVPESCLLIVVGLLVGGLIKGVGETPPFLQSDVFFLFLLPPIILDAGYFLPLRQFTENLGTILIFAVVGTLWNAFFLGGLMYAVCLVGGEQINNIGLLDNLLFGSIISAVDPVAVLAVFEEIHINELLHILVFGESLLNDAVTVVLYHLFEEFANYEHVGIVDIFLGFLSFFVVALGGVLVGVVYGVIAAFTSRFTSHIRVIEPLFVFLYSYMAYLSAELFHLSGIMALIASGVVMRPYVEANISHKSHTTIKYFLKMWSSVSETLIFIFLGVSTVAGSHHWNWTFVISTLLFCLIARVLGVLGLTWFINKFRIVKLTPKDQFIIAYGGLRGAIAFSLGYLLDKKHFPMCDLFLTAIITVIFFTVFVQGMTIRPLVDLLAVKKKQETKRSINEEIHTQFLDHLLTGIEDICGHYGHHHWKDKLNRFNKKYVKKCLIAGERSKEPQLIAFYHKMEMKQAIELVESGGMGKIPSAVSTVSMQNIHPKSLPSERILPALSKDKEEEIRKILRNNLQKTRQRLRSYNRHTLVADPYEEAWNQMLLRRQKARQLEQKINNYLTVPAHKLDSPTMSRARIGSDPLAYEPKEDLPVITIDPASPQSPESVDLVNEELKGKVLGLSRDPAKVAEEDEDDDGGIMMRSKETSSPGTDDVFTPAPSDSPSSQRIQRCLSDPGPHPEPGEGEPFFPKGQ
# assay_explanation: NHE inhibition FLIPR test (intracellular pH recovery, BCECF) in transfected LAP-1 cells
# experimental_parameters: transfected cell line (parental LAP-1) expressing the NHE-1 subtype, pHi recovery after acidification
outcome_measure: log10(IC50) (log10 of the value in nM)
// stored as log10 of IC50 expressed in nM

In: May I ask what log10(IC50) has been recorded for [H]/N=C(\N)NC(=O)CC1c2cc(Cl)c(Cl)cc2C(=O)N1CCC(F)(F)F (single isomer, unassigned) [Example 41c] ?
Out: 1.28

In: May I ask what log10(IC50) has been recorded for NC(N)=NC(=O)CC1c2cc(C(F)(F)F)ccc2C(=O)N1CC1CC1 (single isomer, unassigned) [Example 38b] ?
Out: 0.70

In: May I ask what log10(IC50) has been recorded for NC(N)=NC(=O)CC1c2cc(C(F)(F)F)ccc2C(=O)N1CCC(F)(F)F (single isomer, unassigned) [Example 51a] ?
Out: 0.78

In: May I ask what log10(IC50) has been recorded for NC(N)=NC(=O)CC1c2cc(C(F)(F)F)ccc2C(=O)N1CC(F)(F)F (single isomer, unassigned) [Example 46b] ?
Out: -0.70

In: May I ask what log10(IC50) has been recorded for CC(C)CN1C(=O)c2cc(C(C)(C)C)ccc2C1CC(=O)N=C(N)N (centres unmarked) ?
Out: 1.04

In: May I ask what log10(IC50) has been recorded for CN1C(=O)c2ccccc2C1CC(=O)N=C(N)N (centres unmarked) ?
Out: 1.87

In: May I ask what log10(IC50) has been recorded for NC(N)=NC(=O)CC1c2ccc(C(F)(F)F)cc2C(=O)N1CC(F)(F)F (single isomer, unassigned) [Example 47a] ?
Out: 1.85

In: May I ask what log10(IC50) has been recorded for NC(N)=NC(=O)CC1c2cc(Cl)ccc2C(=O)N1CC1CC1 (single isomer, unassigned) [Example 55a] ?
Out: 0.30
